The compounds listed here are annotated with their IC50.
# target-desc: Genome polyprotein (dengue virus type 2)
# Sequence (P29990 1346-1475 limits assumed): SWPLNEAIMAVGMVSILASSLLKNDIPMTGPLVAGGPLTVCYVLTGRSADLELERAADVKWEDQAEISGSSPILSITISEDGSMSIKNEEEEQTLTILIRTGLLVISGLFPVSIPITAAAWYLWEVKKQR
# Sequence (P29990 1476-2093 limits assumed): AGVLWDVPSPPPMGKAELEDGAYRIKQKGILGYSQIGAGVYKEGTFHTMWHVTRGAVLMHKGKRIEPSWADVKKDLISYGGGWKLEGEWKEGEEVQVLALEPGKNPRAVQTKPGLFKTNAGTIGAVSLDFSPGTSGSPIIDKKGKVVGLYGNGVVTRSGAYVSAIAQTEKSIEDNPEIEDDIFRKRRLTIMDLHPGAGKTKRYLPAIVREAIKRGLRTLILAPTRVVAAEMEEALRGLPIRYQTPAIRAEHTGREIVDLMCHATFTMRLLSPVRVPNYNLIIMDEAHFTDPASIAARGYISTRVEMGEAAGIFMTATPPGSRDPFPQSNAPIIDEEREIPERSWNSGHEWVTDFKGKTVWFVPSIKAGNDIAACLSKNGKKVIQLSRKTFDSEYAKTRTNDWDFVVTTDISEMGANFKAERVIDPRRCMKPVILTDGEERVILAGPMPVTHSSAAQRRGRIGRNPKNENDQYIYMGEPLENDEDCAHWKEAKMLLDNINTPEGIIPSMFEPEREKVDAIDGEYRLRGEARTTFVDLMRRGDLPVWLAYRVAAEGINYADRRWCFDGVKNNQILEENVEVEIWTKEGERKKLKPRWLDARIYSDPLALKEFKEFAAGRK
# Type: functional, Thailand/16681/1984
readout-name: IC50

compound: O=C(NCc1ccc2c(c1)CCNC2)c1cc(Cl)cc2[nH]ncc12
target-desc: Genome polyprotein (dengue virus type 2)
reported-result: > 99.5 µM
--
compound: Cc1cc(C(=O)Nc2cccc(CN)c2)c(NC(=O)[C@H]2CCCO2)s1
target-desc: Genome polyprotein (dengue virus type 2)
reported-result: > 99.5 µM
--
compound: O=C(Nc1ccc2c(c1)CNC2)c1cc(Cl)cc(C(F)(F)F)n1
target-desc: Genome polyprotein (dengue virus type 2)
reported-result: 22.5 µM
--
compound: NCc1cccc(NC(=O)[C@H](NC(=O)OCc2ccccc2)c2ccc(OCc3ccccc3)cc2)c1
target-desc: Genome polyprotein (dengue virus type 2)
reported-result: 8.05 µM
--
compound: CNC(=O)[C@H](Nc1ccc(-c2nn[nH]n2)cc1)c1cc(Cl)cc(NC(=O)OCc2ccccc2)c1
target-desc: Genome polyprotein (dengue virus type 2)
reported-result: 50 µM
--
compound: COc1cc(Cl)cc(C(=O)Nc2ccc3c(c2)CNC3)c1
target-desc: Genome polyprotein (dengue virus type 2)
reported-result: > 99.5 µM
--
compound: Cc1cc(NS(=O)(=O)c2ccc(Oc3ccccc3Cl)cc2)c(C(=O)NCC(F)(F)F)cc1F
target-desc: Genome polyprotein (dengue virus type 2)
reported-result: 22.1 µM
--
compound: O=C(Nc1cc(Cl)cc(C(=O)Nc2cc3n(n2)CCNC3)c1)OCc1ccccc1
target-desc: Genome polyprotein (dengue virus type 2)
reported-result: > 99.5 µM
--
compound: O=C(Nc1ccc2c(c1)CNC2)c1cc(Cl)cc2ccccc12
target-desc: Genome polyprotein (dengue virus type 2)
reported-result: > 99.5 µM
--
compound: NCCc1cc(Cl)cc(C(=O)Nc2cccc(CN)c2)c1
target-desc: Genome polyprotein (dengue virus type 2)
reported-result: > 99.5 µM
--
compound: CCOc1ccc([C@@H](NC(=O)OCc2ccccc2)C(=O)Nc2cccc(CN)c2)cc1
target-desc: Genome polyprotein (dengue virus type 2)
reported-result: > 99.5 µM
--
compound: NCc1cccc(NC(=O)[C@@H](NC(=O)OCc2ccccc2)c2ccc(-c3cccc4c3CCO4)cc2)c1
target-desc: Genome polyprotein (dengue virus type 2)
reported-result: 27.8 µM
--
compound: Cc1c(C(=O)Nc2cc3c(cn2)OCC3)cc(C2CC2)n1C
target-desc: Genome polyprotein (dengue virus type 2)
reported-result: > 99.5 µM
--
compound: CCn1c(=O)c(N2CC[C@H](CO)C2)nc2ccc(C(=O)N(C)C)cc21
target-desc: Genome polyprotein (dengue virus type 2)
reported-result: > 99.5 µM
--
compound: COc1cc(C(=O)O)c(S(=O)(=O)Nc2ccc(Oc3ccccc3Cl)cc2)cc1F
target-desc: Genome polyprotein (dengue virus type 2)
reported-result: 30.3 µM
--
compound: NC(=O)[C@H](c1c[nH]c2ccccc12)N1CCC(c2cnc3ccc[nH]c2-3)CC1
target-desc: Genome polyprotein (dengue virus type 2)
reported-result: > 99.5 µM
--
compound: CCc1ccccc1COc1ccc(S(=O)(=O)Nc2ccc(Cl)cc2C(=O)O)cc1
target-desc: Genome polyprotein (dengue virus type 2)
reported-result: 6.5 µM
--
compound: CCn1c(=O)c(N2C[C@H]3CCC[C@H]2C3)nc2ccccc21
target-desc: Genome polyprotein (dengue virus type 2)
reported-result: > 99.5 µM
--
compound: Cn1cnc2c1CN(Cc1ccc3c(c1)CCNCC3)CC2
target-desc: Genome polyprotein (dengue virus type 2)
reported-result: > 99.5 µM
--
compound: NCc1cccc(NC(=O)[C@@H](NC(=O)OCc2ccccc2)c2ccc(-c3ccnc(N)c3)cc2)c1
target-desc: Genome polyprotein (dengue virus type 2)
reported-result: > 99.5 µM
--
compound: Cc1ccc([C@H]2[C@H](C)CN2C(=O)c2ccc(C(F)(F)CN)cc2)cc1
target-desc: Genome polyprotein (dengue virus type 2)
reported-result: > 99.5 µM
--
compound: C#C[C@H](Nc1cccc(C(=O)O)c1)c1cc(Cl)cc2[nH]ncc12
target-desc: Genome polyprotein (dengue virus type 2)
reported-result: > 99.5 µM
--
compound: O=C1O[C@H]2CCN(Cc3ccc(OCc4ccccc4)cc3)C[C@H]12
target-desc: Genome polyprotein (dengue virus type 2)
reported-result: > 99.5 µM
--
compound: O=C(O)c1cc(Cl)ccc1NS(=O)(=O)c1ccc(OCc2ccncc2)cc1
target-desc: Genome polyprotein (dengue virus type 2)
reported-result: > 99.5 µM
--
compound: O=C(O)c1cc(Cl)ccc1NS(=O)(=O)c1ccc(-c2cncs2)cc1
target-desc: Genome polyprotein (dengue virus type 2)
reported-result: 75.3 µM
--
compound: N#C[C@H](Nc1cc(Cl)cc(NC(=O)OCc2ccccc2)c1)c1ccc(-c2nn[nH]n2)cc1
target-desc: Genome polyprotein (dengue virus type 2)
reported-result: 9.45 µM
--
compound: O=C(Nc1cc(Cl)cc(-c2ccc(C3(C(=O)O)CCNCC3)cc2)c1)OCc1ccccc1
target-desc: Genome polyprotein (dengue virus type 2)
reported-result: > 99.5 µM
--
compound: NCc1ccc(F)c(NC(=O)c2cc(Cl)cc(NC(=O)OCc3ccccc3)c2)c1
target-desc: Genome polyprotein (dengue virus type 2)
reported-result: > 99.5 µM
--
compound: Fc1cc(CNc2ccc3c(c2)CNC3)c2cc[nH]c2c1
target-desc: Genome polyprotein (dengue virus type 2)
reported-result: > 99.5 µM
--
compound: CC(C)c1nc2cc(Cl)ccc2n1Cc1ccc(-c2nn[nH]n2)cc1
target-desc: Genome polyprotein (dengue virus type 2)
reported-result: > 99.5 µM
--
compound: CN1CCN(C2CCN(C(=O)c3cc(C=O)n(C)c3)CC2)CC1
target-desc: Genome polyprotein (dengue virus type 2)
reported-result: > 99.5 µM
--
compound: Cc1c(C(=O)Nc2cc(CN(C)C)ccn2)cc(C2CC2)n1C
target-desc: Genome polyprotein (dengue virus type 2)
reported-result: > 99.5 µM
--
compound: O=C(O)c1ccc(-c2cc(NC(=O)c3cc(F)cc4[nH]ncc34)cc3c2CNC3)cc1
target-desc: Genome polyprotein (dengue virus type 2)
reported-result: 75.4 µM
--
compound: O=C(N[C@@H](C(=O)Nc1ccc2c(n1)CNC2)c1ccc(OCc2ccccc2)cc1)OCc1ccccc1
target-desc: Genome polyprotein (dengue virus type 2)
reported-result: > 99.5 µM
--
compound: NCc1cccc(NC(=O)[C@@H](NC(=O)OCc2ccccc2)C2CCN(C3CCOCC3)CC2)c1
target-desc: Genome polyprotein (dengue virus type 2)
reported-result: > 99.5 µM
--
compound: O=C(Nc1ccc(Cl)cc1C(=O)O)c1ccc(Oc2ccccc2Cl)cc1
target-desc: Genome polyprotein (dengue virus type 2)
reported-result: 42.5 µM
--
compound: COc1cc(N[C@@H](C(=O)N2CCc3ccc(OC(F)(F)F)cc32)c2ccc(Cl)cc2)cc(OCCCC(=O)O)c1
target-desc: Genome polyprotein (dengue virus type 2)
reported-result: 14.2 µM
--
compound: NCc1cccc(NC(=O)[C@@H](NC(=O)OCc2ccccc2)C2CCCCC2)c1
target-desc: Genome polyprotein (dengue virus type 2)
reported-result: > 99.5 µM
--
compound: Cc1cc(CC(=O)O)ccc1Cc1c[nH]c2ccc(Cl)cc12
target-desc: Genome polyprotein (dengue virus type 2)
reported-result: > 99.5 µM
--
compound: CC(=O)NCc1cccc(NC(=O)c2cc(Cl)cc(NC(=O)OCc3ccccc3)c2)c1
target-desc: Genome polyprotein (dengue virus type 2)
reported-result: > 99.5 µM
--
compound: CCCC[C@H](NC(C)=O)C(=O)N[C@H](C(=O)NCc1ccc(CN)cc1)c1ccccc1
target-desc: Genome polyprotein (dengue virus type 2)
reported-result: > 99.5 µM

* * *

The compounds listed here are annotated with their pIC50.
# target-desc: Genome polyprotein (dengue virus type 2)
# Assay type: functional, Thailand/16681/1984
pIC50: −log10 of the molar value.
readout-name: pIC50

compound: O=C(O)CCc1cccc(NC(=O)c2cc(Cl)cc(NC(=O)OCc3ccccc3)c2)c1
readout-name: pIC50
reported-result: 4.32
--
compound: CC1(C)CN(C(=O)Nc2ccc3c(c2)CNC3)CC(F)(F)C1
readout-name: pIC50
reported-result: < 4.00
--
compound: O=C(Nc1ccc2c(c1)CN[C@H]2c1ccccc1)c1cc(F)cc2[nH]ncc12
readout-name: pIC50
reported-result: < 4.00
--
compound: O=C1Cc2c(cc(Br)cc2C(=O)Nc2ccc3c(c2)CNC3)N1
readout-name: pIC50
reported-result: < 4.00
--
compound: Cn1c(=O)[nH]c2c(C(=O)Nc3ccc4c(c3)CNC4)cc(Br)cc21
readout-name: pIC50
reported-result: < 4.00
--
compound: C[C@](N)(C(=O)Nc1ccc2c(c1)C(=O)OC2)c1cccs1
readout-name: pIC50
reported-result: < 4.00
--
compound: CN1C(=O)[C@H](c2cc(Cl)cc(NC(=O)OCc3ccccc3)c2)N(c2cccc(-c3nn[nH]n3)c2)C1=O
readout-name: pIC50
reported-result: 4.66
--
compound: NCc1cccc(NC(=O)c2cc(CO)cc(NC(=O)OCc3ccccc3)c2)c1
readout-name: pIC50
reported-result: < 4.00
--
compound: N=C(N)NCc1ccc(OC(=O)Nc2ccccc2)cc1
readout-name: pIC50
reported-result: < 4.00
--
compound: NCc1cccc(NC(=O)c2cc3c(F)cc(F)c(F)c3[nH]2)c1
readout-name: pIC50
reported-result: < 4.00
--
compound: COc1ccc(CN2Cc3cc(NC(=O)c4cc(Cl)cc5[nH]ncc45)cc(Br)c3C2)cc1
readout-name: pIC50
reported-result: < 4.00
--
compound: CCn1cc(-c2cn(C)nc2C(F)(F)F)nc(N2CC[C@@H](CO)C2)c1=O
readout-name: pIC50
reported-result: < 4.00
--
compound: Cc1c(C(=O)Nc2cccc(CS(C)(=O)=O)c2)cc(C2CC2)n1C
readout-name: pIC50
reported-result: < 4.00
--
compound: O=C(Nc1ccc2c(c1)CNC2)c1cc(Cl)cc2nn[nH]c12
readout-name: pIC50
reported-result: < 4.00
--
compound: O=C(N[C@@H](C(=O)Nc1ccncc1)c1ccc(OCc2ccccc2)cc1)OCc1ccccc1
readout-name: pIC50
reported-result: < 4.00
--
compound: Cc1cc(NC(=O)c2cc(Cl)cc3[nH]ncc23)ccc1N1CCNCC1
readout-name: pIC50
reported-result: 4.08
--
compound: C(#C[C@H](Nc1ccc2c(c1)CNC2)c1cccc2[nH]ncc12)c1ccccc1
readout-name: pIC50
reported-result: < 4.00
--
compound: CCN1CCN(c2ccc(NS(=O)(=O)c3ccc(Cl)cc3C(=O)O)cc2)CC1
readout-name: pIC50
reported-result: < 4.00
--
compound: O=C1Cc2c(cccc2C(=O)NCC2(F)CC3(CCOCC3)C2)N1
readout-name: pIC50
reported-result: < 4.00
--
compound: O=C(Nc1ccc2c(c1)CNC2)N1CCC[C@H]1c1nc2ncccc2[nH]1
readout-name: pIC50
reported-result: < 4.00
--
compound: c1cncc(N2CCCN(Cc3c[nH]c4ccccc34)CC2)c1
readout-name: pIC50
reported-result: < 4.00
